Target: F508delCFTR (Homo sapiens, UniProt P13569, DEL508-508)
Construct: expressed in transfected cells; host or cells: CFBE41o- human lung-derived epithelial cells (CFBE41o-F508delCFTR-HRP), doxycycline-inducible
Sequence (P13569 with tags, fused parts or gaps DEL508-508): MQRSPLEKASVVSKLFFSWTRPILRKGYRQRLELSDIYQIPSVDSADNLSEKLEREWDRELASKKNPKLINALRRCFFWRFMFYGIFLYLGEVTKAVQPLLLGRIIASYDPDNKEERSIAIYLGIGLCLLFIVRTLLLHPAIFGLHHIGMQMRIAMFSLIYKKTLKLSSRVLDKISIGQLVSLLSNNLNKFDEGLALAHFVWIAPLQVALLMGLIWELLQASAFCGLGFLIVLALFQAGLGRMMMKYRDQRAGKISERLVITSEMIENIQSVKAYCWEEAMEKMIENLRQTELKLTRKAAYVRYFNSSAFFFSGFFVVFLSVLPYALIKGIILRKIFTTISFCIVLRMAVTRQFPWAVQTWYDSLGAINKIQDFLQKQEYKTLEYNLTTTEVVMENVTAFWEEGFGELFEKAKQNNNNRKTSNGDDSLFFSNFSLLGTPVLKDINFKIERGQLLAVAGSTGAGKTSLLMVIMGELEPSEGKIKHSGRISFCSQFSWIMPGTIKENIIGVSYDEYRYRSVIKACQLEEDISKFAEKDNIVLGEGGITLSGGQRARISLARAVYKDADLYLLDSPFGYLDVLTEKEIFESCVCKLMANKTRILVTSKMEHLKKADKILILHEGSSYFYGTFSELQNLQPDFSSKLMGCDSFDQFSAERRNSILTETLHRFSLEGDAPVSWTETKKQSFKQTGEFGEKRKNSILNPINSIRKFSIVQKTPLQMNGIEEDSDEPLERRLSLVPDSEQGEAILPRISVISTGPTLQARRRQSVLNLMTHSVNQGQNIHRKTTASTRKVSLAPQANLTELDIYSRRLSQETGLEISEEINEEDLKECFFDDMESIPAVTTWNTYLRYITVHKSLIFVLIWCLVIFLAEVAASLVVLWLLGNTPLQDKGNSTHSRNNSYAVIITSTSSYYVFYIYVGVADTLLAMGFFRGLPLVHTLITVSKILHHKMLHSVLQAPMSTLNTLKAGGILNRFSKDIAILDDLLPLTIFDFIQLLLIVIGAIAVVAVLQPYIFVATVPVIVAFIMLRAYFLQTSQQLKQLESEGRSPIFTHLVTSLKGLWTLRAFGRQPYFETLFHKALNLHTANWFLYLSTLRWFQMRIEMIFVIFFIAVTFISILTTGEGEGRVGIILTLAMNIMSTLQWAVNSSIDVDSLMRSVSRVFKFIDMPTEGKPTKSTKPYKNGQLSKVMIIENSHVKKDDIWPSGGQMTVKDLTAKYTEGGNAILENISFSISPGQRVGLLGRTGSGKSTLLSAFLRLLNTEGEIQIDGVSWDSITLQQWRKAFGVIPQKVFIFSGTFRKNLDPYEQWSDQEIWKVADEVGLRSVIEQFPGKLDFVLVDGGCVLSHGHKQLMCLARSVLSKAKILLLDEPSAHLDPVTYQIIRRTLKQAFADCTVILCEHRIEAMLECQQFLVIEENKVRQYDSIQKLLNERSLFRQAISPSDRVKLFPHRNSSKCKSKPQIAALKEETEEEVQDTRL
Test: Cell Surface Expression-Horse Radish Peroxidase (CSE-HRP) assay, test compound without co-corrector;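 as to Emax: percent of on-plate 2 µM positive control corrector response over DMSO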
Format: cell-based
Settings: maximum at any tested concentration, normalized to positive control, without co-corrector
This section presents compounds with their documented Emax values.

Answered cases to consult:
INSERT INTO assay_data (compound, property_label, observed_result) VALUES
  ('COc1ccc(C2CCC2)c2c1[C@@H](C(=O)NS(=O)(=O)c1cccc3nc(C)ccc13)CC2', 'Emax', '≥ 150%'),
  ('CCC1(C(=O)NS(=O)(=O)c2cccc3sccc23)CCc2c(Cl)cccc21 (centres unmarked)', 'Emax', '50 to 150%'),
  ('CCC1(C(=O)NS(=O)(=O)c2cccc(N3CC(F)(F)C3)c2C)CCc2c(Cl)cccc21 (centres unmarked)', 'Emax', '50 to 150%');

Record request: Emax value, item COc1cccc2c1CCC2C(=O)NS(=O)(=O)c1ccc(NC(=O)CC(C)=O)cc1 (centres unmarked)
< 50%

Record request: Emax value, item CC1(C(=O)NS(=O)(=O)c2ccccc2)CCc2c(Cl)cccc21 (centres unmarked)
50 to 150%

Record request: Emax value, item Cc1ccccc1S(=O)(=O)NC(=O)C1(C)CCc2c1ccc(F)c2F (centres unmarked)
< 50%

Record request: Emax value, item CCOc1ccc2c(S(=O)(=O)NC(=O)C3CCc4c(Br)ccc(OC)c43)cccc2n1 (centres unmarked)
≥ 150%

Record request: Emax value, item COc1ccc(-c2ccc(C3CC3)nc2)c2c1CCCC2C(=O)NS(=O)(=O)c1cccc2ccccc12 (centres unmarked)
≥ 150%

* * *

Biological target: F508delCFTR (Homo sapiens, UniProt P13569, DEL508-508)
Construct: expressed in transfected cells; host or cells: CFBE41o- human lung-derived epithelial cells (CFBE41o-F508delCFTR-HRP), doxycycline-inducible
Assay: Cell Surface Expression-Horse Radish Peroxidase (CSE-HRP) assay, test compound without co-corrector
Type: cell-based
Details: test compound without co-corrector
pEC50: −log10 of the molar value.
Property label: pEC50

Answered cases to consult:
INSERT INTO measurements (compound, observed_result) VALUES
  ('Cc1ccc(S(=O)(=O)NC(=O)C2CCc3c(Cl)cccc32)nc1 (centres unmarked)', '≤ 5.00'),
  ('COc1cccc2c1CCC2C(=O)NS(=O)(=O)c1ccc(NC(C)=O)cc1C (centres unmarked)', '≤ 5.00'),
  ('COc1ccc(CCC2OCCCO2)c2c1C(C(=O)NS(=O)(=O)c1cccc3ccccc13)CCC2 (centres unmarked)', '5.00 to 5.52'),
  ('O=C(NS(=O)(=O)c1cccc2ccccc12)C1CCCc2cccc(C3CCC3)c21 (centres unmarked)', '> 5.52'),
  ('COc1cccc2c1C(C(=O)NS(=O)(=O)c1cccc3ncccc13)CC2(C)C (centres unmarked)', '5.00 to 5.52'),
  ('CCC1(C(=O)NS(=O)(=O)c2cccc(N3CC(F)(F)C3)c2C)CCc2c(Cl)cccc21 (centres unmarked)', '5.00 to 5.52'),
  ('CCOc1ccc(Br)c2c1C(C(=O)NS(=O)(=O)c1cccc3ccccc13)CC2 (centres unmarked)', '> 5.52');

Next, consider the following compound.
Record request: pEC50 value, item O=C(NS(=O)(=O)c1cccc2ccccc12)C1CCCc2c(O)ccc(Br)c21 (centres unmarked)
5.00 to 5.52
